Where these numbers come from: patent US7157495B2

test: Oral absorption in rats, serum concentration; format: in vivo; settings: rat, serum, po, 20 mg/kg, single oral dose 20 mg/kg in PEG400 by gavage, 180 minutes after administration, read-out: Compound concentration in serum
measuredMetric: concentration at 180 min (nM)

1) CC(C)CN(CC(O)C(Cc1ccccc1)NC(=O)OC1COC2OCCC12)S(=O)(=O)c1ccc2c(c1)OCO2 (stereo not shown)    687

---

tested on: HIV strain r13025; test: Antiviral spectrum, protease inhibitor resistant strain; type: cell-based; conditions: strain r13025; L10I, M46I, L63P, A71V, I84V
pIC50: −log10 of the molar value.
measuredMetric: pIC50

1) CC(C)CN(CC(O)C(Cc1ccccc1)NC(=O)OC1COC2OCCC12)S(=O)(=O)c1ccc2c(c1)OCO2 (stereo not shown)    7.34
